- experimental_details: MELAS cybrid and Rieske KO viability enhancers – cell-based, MELAS cybrids, Rieske KO mouse fibroblasts, CellTiter-Glo, primary screen (AID 1508586);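 further: z relative to plate mean and SD of compound and empty wells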
- test_settings: Rieske KO mouse fibroblast survival, low glucose, CellTiter-Glo 72 h
Grouping rule (z-score): low (below -0.3), moderate (-0.3 to below -0.04), high (-0.04 or more)

- molecule: "CCOc1ccc(Cc2cc(C3OC(CO)C(O)C(O)C3O)ccc2Cl)cc1 (stereo not given)"
  qualitative_label: "moderate"
- molecule: "Oc1ccc(C=Cc2cc(O)cc(O)c2)cc1"
  qualitative_label: "high"
- molecule: "CNS(=O)(=O)c1cc(NCc2cnc(C)[nH]2)cc(C(=O)Nc2ccc3c(c2)CCC3)c1"
  qualitative_label: "low"
- molecule: "CN(Cc1noc(C2CCCC2)n1)C(=O)c1nc(=O)[nH]c2ccccc12"
  qualitative_label: "high"
- molecule: "Nc1nc(NC(Cn2ccnc2)c2ccccc2)c2cn[nH]c2n1 (stereo not given)"
  qualitative_label: "low"
- molecule: "C[C@]12C=CC(=O)C=C1CC[C@@H]1[C@H]2C(O)C[C@@]2(C)[C@H]1CC[C@@]2(O)C(=O)CO (stereo not given in full)"
  qualitative_label: "low"
- molecule: "Cn1c2c(cc(-c3ccc(OC(F)(F)F)cc3)c1=O)CN(C(=O)C1CC(=O)c3ccccc31)CC2 (stereo not given)"
  qualitative_label: "high"
- molecule: "Cc1cccc(CN2CCN(c3ncnc4sccc34)CC2=O)c1"
  qualitative_label: "low"
- molecule: "NS(=O)(=O)c1ccc(NC(=O)Nc2ccc(F)cc2)cc1"
  qualitative_label: "moderate"

* * *

- experimental_details: viability loss with induced miR-34 in A549 – imaging, A549 dox-inducible miR-34, nuclei and caspase counts, primary screen (AID 1347080)
- test_settings: A549 miR-34 inducible, Hoechst nuclei count, 48 h; measured here: total cells without miR-34 induction
Square brackets hold non-standard residues; d marks the D form. Peptide text beside a SMILES is read from it. Phe(ol) = N[C@H](CO)Cc1ccccc1; Aib = CC(C)(N)C(=O)O
For each record, check the reported cell count: if it is below 8000 write true (1), else write false (0).

- compound: "CCCCC[C@@H](O)/C=C/[C@H]1[C@H](C/C=C\\CCCC(=O)O)C(=O)C[C@@H]1O"
  qualitative_label: "true (1)"
- compound: "CN1C2CC(OC(=O)C(CO)c3ccccc3)CC1C1OC12 (stereo unspecified)"
  qualitative_label: "false (0)"
- compound: "CCOC(=O)c1cc2ccc(O)cc2oc1=O"
  qualitative_label: "false (0)"
- compound: "OB(O)c1cc2ccccc2s1"
  qualitative_label: "false (0)"
- compound: "CC(=O)NC(C)(C)C(=O)N1CCC[C@H]1C(=O)NC(C)(C)C(=O)N[C@@H](C)C(=O)NC(C)(C)C(=O)N[C@@H](C)C(=O)N[C@@H](CCC(N)=O)C(=O)NC(C)(C)C(=O)N[C@H](C(=O)NC(C)(C)C(=O)NCC(=O)N[C@@H](CC(C)C)C(=O)NC(C)(C)C(=O)N1CCC[C@H]1C(=O)N[C@H](C(=O)NC(C)(C)C(=O)NC(C)(C)C(=O)N[C@@H](CCC(=O)O)C(=O)N[C@@H](CCC(N)=O)C(=O)N[C@H](CO)Cc1ccccc1)C(C)C)C(C)C (Ac-[Aib]P[Aib]A[Aib]AQ[Aib]V[Aib]GL[Aib]PV[Aib][Aib]EQ[Phe(ol)])"
  qualitative_label: "true (1)"
- compound: "CCC(=C(CC)c1ccc(O)cc1)c1ccc(O)cc1"
  qualitative_label: "false (0)"

* * *

- experimental_details: viability loss with induced miR-34 in A549 – imaging, A549 dox-inducible miR-34, nuclei and caspase counts, primary screen (AID 1347080)
- test_settings: A549 miR-34 inducible, Hoechst nuclei count, 48 h; measured here: relative caspase fold change +Dox/-Dox
In this section we review reported fold change values for a set of compounds.

- compound: "CS(=O)(=O)c1ccc(C(O)C(CO)NC(=O)C(Cl)Cl)cc1 (stereo not drawn)"
  fold change: 1.06
- compound: "O=C1NC(=O)C(=Cc2ccc(-c3ccc(F)cc3)o2)S1"
  fold change: 0.688
- compound: "NC[C@H]1O[C@@H](n2cnc3c(N)ncnc32)[C@H](O)[C@@H]1O"
  fold change: 1.37
- compound: "Nc1nc2ccc(Cl)cc2n2c(-c3ccccc3)nnc12"
  fold change: 0.972
- compound: "CC1=C(C(=O)O)N2C(=O)C(NC(=O)C(N)c3ccccc3)C2SC1 (stereo not drawn)"
  fold change: 1.4
- compound: "C=C[C@@]1(C)CC(=O)[C@@]2(O)[C@@]3(C)C(O)CCC(C)(C)[C@@H]3C(O)C(OC(C)=O)[C@@]2(C)O1 (stereo partly drawn)"
  fold change: 1.19
- compound: "CNC(=O)c1c(I)c(C(=O)NCC(=O)Nc2c(I)c(C(=O)O)c(I)c(C(=O)NCCO)c2I)c(I)c(N(C)C(C)=O)c1I"
  fold change: 0.7
- compound: "COC1C[C@H]2CCC(C)[C@@](O)(O2)C(=O)C(=O)N2CCCC[C@H]2C(=O)OC(C(C)CC2CCC(OP(C)(C)=O)C(OC)C2)CC(=O)C(C)C=C(C)C(O)C(OC)C(=O)C(C)CC(C)C=CC=CC=C1C (stereo partly drawn)"
  fold change: 0.835

* * *

- experimental_details: drug combination growth inhibition, ovarian cancer – cell-based, oncology-focused library, rucaparib conditional, profiling panel (AID 1508598)
- test_settings: patient-derived ovarian cancer cells, CellTiter-Glo viability, 144 h; at 0.000305 µM; OCI-C5x cells; with rucaparib 10 µM; stronger effect = lower value; 100% = cells with rucaparib alone
In this section we review reported viability values for a set of compounds.

- compound: "CCOC(=O)c1[nH]c2cc(Cl)ccc2c1C(C(=O)NC(C)(C)C)N(C=O)Cc1ccc(Cl)cc1 (stereo not drawn)"
  unit_of_measure: "%"
  viability: 118
- compound: "CCc1c2c(nc3ccc(OC(=O)N4CCC(N5CCCCC5)CC4)cc13)-c1cc3c(c(=O)n1C2)COC(=O)[C@@]3(O)CC"
  unit_of_measure: "%"
  viability: 115
- compound: "CCOc1ccc(Cc2cc([C@@H]3O[C@H](CO)[C@@H](O)[C@H](O)[C@@H]3O)ccc2Cl)cc1"
  unit_of_measure: "%"
  viability: 111
- compound: "Nc1ncn([C@@H]2O[C@H](CO)[C@@H](O)[C@@H]2O)c(=O)n1"
  unit_of_measure: "%"
  viability: 104
- compound: "O=C(/C=C/c1ccc2ccccc2n1)c1ccncc1"
  unit_of_measure: "%"
  viability: 108
- compound: "CC(=O)[C@]1(O)Cc2c(O)c3c(c(O)c2[C@H](O[C@H]2C[C@H](N)[C@H](O)[C@H](C)O2)C1)C(=O)c1ccccc1C3=O"
  unit_of_measure: "%"
  viability: 107
- compound: "N[C@@H]1CCCN(c2c(/C=C3\\SC(=O)NC3=O)cccc2-c2ccccc2)C1"
  unit_of_measure: "%"
  viability: 108
- compound: "COc1cc(C(=O)NC2CCN(C)CC2)ccc1Nc1ncc2c(n1)N(C1CCCC1)CC(F)(F)C(=O)N2C"
  unit_of_measure: "%"
  viability: 103

* * *

- experimental_details: drug combination growth inhibition, ovarian cancer – cell-based, oncology-focused library, rucaparib conditional, profiling panel (AID 1508598)
- test_settings: patient-derived ovarian cancer cells, CellTiter-Glo viability, 144 h; at 0.0781 µM; OCI-C5x cells; with rucaparib 10 µM; stronger effect = lower value; 100% = cells with rucaparib alone
readout_name: viability (%)

- compound: "Cc1cc2c(C(=O)NC[C@H](C)c3ccccc3)c(O)c(O)cc2c(O)c1-c1c(C)cc2c(C(=O)NC[C@H](C)c3ccccc3)c(O)c(O)cc2c1O"
  readout_name: "viability"
  unit_of_measure: "%"
  test_value: 122
- compound: "CC[C@]1(O)C[C@@H]2CN(CCc3c([nH]c4ccccc34)[C@@](C(=O)OC)(c3cc4c(cc3OC)N(C=O)[C@@H]3C45CCN4CC=C[C@](CC)([C@H]45)[C@H](OC(C)=O)[C@]3(O)C(=O)OC)C2)C1 (stereo partly drawn)"
  readout_name: "viability"
  unit_of_measure: "%"
  test_value: 45.1
- compound: "CO[C@H]1/C=C\\C=C(\\C)C(=O)NC2=CC(=O)C(NCCN(C)C)=C(C[C@@H](C)C[C@H](OC)[C@H](O)[C@@H](C)/C=C(\\C)[C@@H]1OC(N)=O)C2=O"
  readout_name: "viability"
  unit_of_measure: "%"
  test_value: 91.8

* * *

- experimental_details: growth inhibition, single agent and combos, cell-based, chromothripsis tumors, cisplatin or BGB combos (AID 1671450);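 further: cells exposed to compound for four days; 0% = vehicle DMSO and 100% = cell killing by high DMSO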
- test_settings: HDN33 neuroblastoma cells, BGB combo, at 5 µM, stronger effect = higher value
In this section we review reported inhibition values for a set of compounds.

- compound: "Nc1ncn(C2OC(CO)C(O)C2O)c(=O)n1 (stereo not given)"
  inhibition, %: 35.3
- compound: "CC(C)(O)[C@H]1CC[C@@](C)(C2[C@@H](O)C[C@@]3(C)[C@@H]4C[C@H](O)C5C(C)(C)[C@@H](O)CCC56CC46CC[C@]23C)O1 (stereo not given in full)"
  inhibition, %: -24.9
- compound: "O=c1[nH]cnc2c1ncn2C1CCC(CO)O1 (stereo not given)"
  inhibition, %: -15.1
- compound: "Nc1nc(NC2CC2)cc(-c2cccc(Cl)c2Cl)n1"
  inhibition, %: 4.24
- compound: "Cc1cc(C)cc(C(=O)NOCCCCCC(=O)NO)c1"
  inhibition, %: 98
